Hey, just so you know, these numbers are from patent US10233180B2.

Test system: human colon cancer cell strain HCT-116
Assay: MTT assay, inhibition of tumor cell growth in vitro, 72 h
Format: cell-based
Details: Homo sapiens, HCT-116, MTT, read-out: Antitumor proliferative activities of tumor cell (IC50, μM) HCT-116 (converted)
Experimental: First, inhibitory activity on tumor proliferation in vitro is determined and the structure activity relationship is preliminarily studied, in which different solid tumor cell strains are selected for determining the antitumor activities in vitro of the synthesized compounds. Cell strains: Human ovarian cancer cell strain (OVCAR8), colon adenocarcinoma cell strain (HCT-116) HCT-116: RPMI 1640+Fetal Bovine Serum […]
measurement.type: IC50 (µM)

// worked examples, IC50 included
- CC(C)c1cnn(C)c1-c1nc(C(=O)N[C@H]2CNCC[C@@H]2C2CCC(F)C2)ncc1Cl (stereo partly shown): 3.11
- Cn1ncc(Cl)c1-c1cnc(C(=O)N[C@@H]2CNCC[C@H]2c2cccc(F)c2)cc1Cl: 1.25

1 = Cn1ncc(Cl)c1-c1coc(C(=O)N[C@H]2CNC[C@@H]2c2ccc(F)c(F)c2)c1 (racemic)
2 = Cn1ncc(Cl)c1-c1ccc(C(=O)N[C@@H]2CNCC[C@H]2c2ccc(F)c(F)c2)cc1F
Task item: Field: entry with larger IC50 (options 1 / 2 ). State the label of the item chosen.
Reply: 1
(1: 3.22 µM, 2: 1.56 µM)
